Target: canine FcRn (FcRn large subunit with canine beta-2-microglobulin) (canine)
Experiment: SPR pH 5.9, IgG coupled to C1 chip, 1:1 kinetic fit
recorded metric: kon (M⁻¹ s⁻¹)
Return type: number; implicit unit M⁻¹ s⁻¹.

Guide cases for kon, answers given:
binder | kon (M⁻¹ s⁻¹)
anti-NGF canine IgGB antibody, Fc variant A426H + T286L (antibody, part only; not given: Anti-NGF variable domains, not shown: another chain or arm of the molecule; small tags and cut ends) Fc: APEMLGGPSVFIFPPKPKDTLLIARTPEVTCVVVDLDPEDPEVQISWFVDGKQMQLAKTQPREEQFNGTYRVVSVLPIGHQDWLKGKQFTCKVNNKALPSPIERTISKARGQAHQPSVYVLPPSREELSKNTVSLTCLIKDFFPPDIDVEWQSNGQQEPESKYRTTPPQLDEDGSYFLYSKLSVDKSRWQRGDTFICHVMHEALHNHYTQESLSHSPGK | 1.16e+06
anti-NGF canine IgGB antibody, Fc variant A426Y + T286L (antibody, part only; not given: Anti-NGF variable domains, not shown: another chain or arm of the molecule; small tags and cut ends) Fc: APEMLGGPSVFIFPPKPKDTLLIARTPEVTCVVVDLDPEDPEVQISWFVDGKQMQLAKTQPREEQFNGTYRVVSVLPIGHQDWLKGKQFTCKVNNKALPSPIERTISKARGQAHQPSVYVLPPSREELSKNTVSLTCLIKDFFPPDIDVEWQSNGQQEPESKYRTTPPQLDEDGSYFLYSKLSVDKSRWQRGDTFICYVMHEALHNHYTQESLSHSPGK | 1.03e+06
anti-NGF canine IgGB antibody, Fc variant A426Y + D312P (antibody, part only; not given: anti-NGF variable domains and light chain, not shown: another chain or arm of the molecule; small tags and cut ends) Fc: APEMLGGPSVFIFPPKPKDTLLIARTPEVTCVVVDLDPEDPEVQISWFVDGKQMQTAKTQPREEQFNGTYRVVSVLPIGHQPWLKGKQFTCKVNNKALPSPIERTISKARGQAHQPSVYVLPPSREELSKNTVSLTCLIKDFFPPDIDVEWQSNGQQEPESKYRTTPPQLDEDGSYFLYSKLSVDKSRWQRGDTFICYVMHEALHNHYTQESLSHSPGK | 1.1e+06
anti-NGF canine IgGB antibody, Fc variant A426Y + T286L + Y436H (antibody, part only; not given: anti-NGF variable domains and light chain, not shown: another chain or arm of the molecule) Fc: APEMLGGPSVFIFPPKPKDTLLIARTPEVTCVVVDLDPEDPEVQISWFVDGKQMQLAKTQPREEQFNGTYRVVSVLPIGHQDWLKGKQFTCKVNNKALPSPIERTISKARGQAHQPSVYVLPPSREELSKNTVSLTCLIKDFFPPDIDVEWQSNGQQEPESKYRTTPPQLDEDGSYFLYSKLSVDKSRWQRGDTFICYVMHEALHNHHTQESLSHSPGK | 5.67e+06

Please look at the following binder next.
Task item: Read the entry anti-NGF canine IgGB antibody, Fc variant A426H + T286Y (antibody, part only; not given: anti-NGF variable domains and light chain, not shown: another chain or arm of the molecule; small tags and cut ends) Fc: APEMLGGPSVFIFPPKPKDTLLIARTPEVTCVVVDLDPEDPEVQISWFVDGKQMQYAKTQPREEQFNGTYRVVSVLPIGHQDWLKGKQFTCKVNNKALPSPIERTISKARGQAHQPSVYVLPPSREELSKNTVSLTCLIKDFFPPDIDVEWQSNGQQEPESKYRTTPPQLDEDGSYFLYSKLSVDKSRWQRGDTFICHVMHEALHNHYTQESLSHSPGK and write its reported kon.
Reply: 1.34e+06
